- targetSystem: His-p53 Y220C (94-294) protein (Homo sapiens, UniProt P04637, Y220C)
- Construct: His-p53 Y220C (94-294) protein
- testProtocol: In vitro DNA binding assay (HTRF)
- conditionNotes: % activation normalized to 2 μM Ref-1a high control
pEC50: −log10 of the molar value.
reportedMetric: pEC50

molecule: CN1CC[C@@H](Nc2cccc3c(CC(F)(F)F)c(C#CCOc4ccc(P(C)(C)=O)cc4C(N)=O)sc23)[C@@H](F)C1 [Example 165]
pEC50: 7.32
//
molecule: COCCCN1CCC(Nc2cccc3c(CC(F)(F)F)c(C#CCNc4ccc(S(C)(=O)=O)cc4OC)sc23)CC1 [Example 20]
pEC50: 6.73
//
molecule: CN1CC[C@@H](Nc2cccc3c(CC(F)(F)F)c(C#CCNc4ccc(P(C)(C)=O)cc4OC4CC4)sc23)[C@@H](F)C1 [Example 150]
pEC50: 7.46
//
molecule: CN1CC[C@@H](Nc2cccc3c(CC(F)(F)F)c(C#CCNc4ccc(S(C)(=O)=O)cc4P(C)(C)=O)sc23)[C@@H](F)C1 [Example 171]
pEC50: 6.75
//
molecule: COc1cc(P(C)(C)=O)c(F)cc1NCC#Cc1sc2c(NC3CCN(C)CC3F)cccc2c1CC(F)(F)F (stereo not shown) [Example 52]
pEC50: 7.26
//
molecule: COc1cc(P2(=O)CCN(C(=O)C3CC3)CC2)ccc1NCC#Cc1sc2c(N[C@@H]3CCN(C)C[C@@H]3F)cccc2c1CC(F)(F)F [Example 149]
pEC50: 7.34
//
molecule: COc1cc(P2(=O)CCCC2)ccc1NCC#Cc1sc2c(N[C@@H]3CCN(C)C[C@@H]3F)cccc2c1CC(F)(F)F [Example 117]
pEC50: 7.47
//
molecule: COc1cc(S(C)(=O)=O)ccc1NCC#Cc1cc2c(N[C@H]3CCN(C)C[C@H]3F)cccc2n1CC(F)(F)F [Ref-1b, reference compound]
pEC50: 7.02

a: CN1CC[C@@H](Nc2cccc3c(CC(F)(F)F)c(C#CCNc4ccc(P(C)(C)=O)c5c4OCC5)sc23)[C@@H](F)C1 [Example 187]
b: COc1cc(P(C)(C)=O)ccc1NCC#Cc1sc2c(NC3CCN(CCCF)CC3)cccc2c1CC(F)(F)F [Example 205]
// max by pEC50 over [ a , b ] Write down the label attached to your selection.
a

1: CN1CC[C@@H](Nc2cccc3c(CC(F)(F)F)c(C#CCNc4cc(F)c(P(C)(C)=O)cc4F)sc23)[C@@H](F)C1 (racemic) [Example 91]
2: COc1cc(S(C)(=O)=O)ccc1NCC#Cc1sc2c(NC3CCN(CCF)CC3)cccc2c1CC(F)(F)F [Example 36]
Of the two listed items, 1 and 2 , which carries the larger pEC50 figure? When you have decided, please share the label of that item.
1

###

Listed below: IC50 values for each entry.
- Tested on: NUGC4 (P53 WT)
- testProtocol: Cell viability assay (CellTiter-Glo, 6 days), NUGC4
- Format: cell-based
- conditionNotes: Homo sapiens, NUGC-4, 144 h; cell viability, 6 days, CellTiter-Glo; read-out: NUGC4 (P53 WT) IC50
Answer format: numeric, µM implied, no suffix.

compound: COc1cc(P(C)(C)=O)ccc1NCC#Cc1sc2c(NC3CC(C)N(C)C(C)C3)cccc2c1CC(F)(F)F (stereo not shown)
targetSystem: NUGC4 (P53 WT)
IC50 / µM: 6.94
--
compound: CN1CC[C@@H](Nc2cccc3c(CC(F)(F)F)c(C#CCNc4ccc(P(C)(C)=O)cc4C#N)sc23)[C@@H](F)C1
targetSystem: NUGC4 (P53 WT)
IC50 / µM: 11.3
--
compound: [2H]C([2H])([2H])Oc1cc(P(C)(C)=O)ccc1NCC#Cc1sc2c(N[C@@H]3CCN(C)C[C@@H]3F)cccc2c1CC(F)(F)F
targetSystem: NUGC4 (P53 WT)
IC50 / µM: 5.93

We next turn to a different compound, shown below.
Which IC50 is listed for CCN1CC[C@@H](Nc2cccc3c(CC(F)(F)F)c(C#CCNc4ccc(P(C)(C)=O)cc4OC)sc23)[C@@H](F)C1 ?
3.62

###

- Tested on: NUGC4 (P53 WT)
- testProtocol: Cell viability assay (CellTiter-Glo, 6 days), NUGC4
- Assay type: cell-based
- conditionNotes: Homo sapiens, NUGC-4, 144 h; cell viability, 6 days, CellTiter-Glo; read-out: NUGC4 (P53 WT) IC50
reportedMetric: IC50 (µM)
Could you give me the number in µM? Just the number is fine.

Illustrative cases are given below, each with its answer.
compound: COc1nc(P(C)(C)=O)ccc1NCC#Cc1sc2c(N[C@@H]3CCN(C)C[C@@H]3F)cccc2c1CC(F)(F)F
IC50, µM: 4.07
//
compound: COc1cc(P(C)(C)=O)ccc1NCC#Cc1sc2c(N[C@@H]3CCN(C4COC4)C[C@@H]3F)cccc2c1CC(F)(F)F (racemic)
IC50, µM: 5.34

Quick check: IC50 of COc1cc(P(C)(C)=O)ccc1NCC#Cc1sc2c(N[C@@H]3CCN(C4CCOC4)C[C@@H]3F)cccc2c1CC(F)(F)F (stereo partly drawn) ?
4.84

Name the reported IC50 value associated with the compound COCC(O)CN1CC[C@@H](Nc2cccc3c(CC(F)(F)F)c(C#CCNc4ccc(S(C)(=O)=O)cc4OC)sc23)[C@@H](F)C1 (mixture of isomers)
6.83

Which IC50 is reported for this compound? [2H]C([2H])([2H])N1CC[C@@H](Nc2cccc3c(CC(F)(F)F)c(C#CCNc4ccc(P(C)(C)=O)cc4OC)sc23)[C@@H](F)C1
12

Look up IC50: COc1cc(P(C)(C)=O)ccc1NCC#Cc1sc2c(NC3CCN(C4CCOCC4)CC3)cccc2c1CC(F)(F)F
4.19

###

- Tested on: NUGC3 (P53 Y220C)
- testProtocol: Cell viability assay (CellTiter-Glo, 6 days), NUGC3
- Assay type: cell-based
- conditionNotes: Homo sapiens, NUGC-3, 144 h, read-out: NUGC3 (P53 Y220C) IC50 (μM)
reportedMetric: IC50 (µM)
Reply with just the number (in µM).

molecule: COc1cc(P(=O)(C2CC2)C2CC2)ccc1NCC#Cc1sc2c(N[C@@H]3CCN(C)C[C@@H]3F)cccc2c1CC(F)(F)F (racemic)
valueUnit: µM
IC50: 1.44
--
molecule: COc1cc(P2(=O)CCCC2)ccc1NCC#Cc1sc2c(N[C@@H]3CCN(C)C[C@@H]3F)cccc2c1CC(F)(F)F
valueUnit: µM
IC50: 0.93

# ---- query molecule ----
So what IC50 did COCCNC(=O)c1cc(P(C)(C)=O)ccc1NCC#Cc1sc2c(N[C@@H]3CCN(C)C[C@@H]3Cl)cccc2c1CC(F)(F)F get with NUGC3 (P53 Y220C)?
0.36

###

- targetSystem: His-p53 Y220C (94-294) protein (Homo sapiens, UniProt P04637, Y220C)
- Construct: His-p53 Y220C (94-294) protein
- testProtocol: In vitro DNA binding assay (HTRF)
- conditionNotes: % activation normalized to 2 μM Ref-1a high control
reportedMetric: EC50 (nM)

Example results:
compound: COc1cc(S(C)(=O)=O)c(F)cc1NCC#Cc1sc2c(NC3CCN(C)CC3)cccc2c1CC(F)(F)F
targetSystem: His-p53 Y220C (94-294) protein (Homo sapiens, UniProt P04637, Y220C)
reportedMetric: EC50
reportedMeasurement: 200
//
compound: CN1CCC(Nc2cccc3c(CC(F)(F)F)c(C#CCNc4ccc(P(C)(C)=O)cc4OC(F)(F)F)sc23)C(F)C1 (centres unmarked)
targetSystem: His-p53 Y220C (94-294) protein (Homo sapiens, UniProt P04637, Y220C)
reportedMetric: EC50
reportedMeasurement: 46
//
compound: COc1cc(S(N)(=O)=O)ccc1NCC#Cc1sc2c(NC3CCN(C)CC3)cccc2c1CC(F)(F)F
targetSystem: His-p53 Y220C (94-294) protein (Homo sapiens, UniProt P04637, Y220C)
reportedMetric: EC50
reportedMeasurement: 100
//
compound: CN1CC[C@@H](Nc2cccc3c(CC(F)(F)F)c(C#CCNc4ccc(P(C)(C)=O)cc4-c4ncon4)sc23)[C@@H](F)C1
targetSystem: His-p53 Y220C (94-294) protein (Homo sapiens, UniProt P04637, Y220C)
reportedMetric: EC50
reportedMeasurement: 58
//
compound: COc1cc(S(C)(=O)=O)ccc1NCC#Cc1sc2c(NC3CC4(CCN(C)CC4)C3)cccc2c1CC(F)(F)F
targetSystem: His-p53 Y220C (94-294) protein (Homo sapiens, UniProt P04637, Y220C)
reportedMetric: EC50
reportedMeasurement: 621

1: CN1CC[C@H](Nc2cccc3c(CC(F)(F)F)c(C#CCNc4ccc(S(N)(=O)=O)cc4)sc23)[C@H](F)C1 (racemic)
2: C[C@H](C#Cc1sc2c(NC3CCN(C)CC3)cccc2c1CC(F)(F)F)Nc1ccc(S(N)(=O)=O)cc1
Which entry has a larger number for EC50, 1 or 2 ? Give the label under which the chosen entry appears.
2

a: CNC(=O)c1cc(NCC#Cc2sc3c(N[C@@H]4CCN(C5CCOCC5)C[C@@H]4F)cccc3c2CC(F)(F)F)c(OC)cc1P(C)(C)=O
b: COc1cc(P(C)(C)=O)ccc1NCC#Cc1sc2c(N[C@H]3CCN(C)C[C@@H]3F)cccc2c1-c1ccc(F)cc1 (racemic)
// compare measured EC50 between a and b ; output the lower one Label of pick, please.
a
(a: 41 nM, b: 1220 nM)

1: COc1cc([S@](C)(=N)=O)ccc1NCC#Cc1sc2c(N[C@@H]3CCN(C)C[C@@H]3F)cccc2c1CC(F)(F)F
2: COc1cc(S(C)(=O)=O)ccc1NCC#Cc1sc2c(NC3C4CCC3CN(C)C4)cccc2c1CC(F)(F)F (centres unmarked)
3: CCP(=O)(CC)c1ccc(NCC#Cc2sc3c(N[C@@H]4CCN(C5CCOCC5)C[C@@H]4F)cccc3c2CC(F)(F)F)c(OC)c1
4: COCCOc1cc(S(C)(=O)=O)ccc1NCC#Cc1sc2c(NC3CCN(C)CC3)cccc2c1CC(F)(F)F
Ascending by EC50, please: list the compounds accordingly. // rank by listing labels in the order requested
1, 3, 4, 2
(1: 40 nM, 3: 108 nM, 4: 199 nM, 2: 312 nM)
